STUDY_TARGET: PARK7 (Homo sapiens, UniProt Q99497)
Sequence (Q99497 1-189): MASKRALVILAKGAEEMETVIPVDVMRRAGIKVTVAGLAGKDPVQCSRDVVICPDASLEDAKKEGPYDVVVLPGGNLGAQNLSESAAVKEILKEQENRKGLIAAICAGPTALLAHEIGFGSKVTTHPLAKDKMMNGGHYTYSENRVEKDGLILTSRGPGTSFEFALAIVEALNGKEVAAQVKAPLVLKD
ASSAY_OVERVIEW: Probe labeling of endogenous PARK7 in cells (HEK293T, A549)
Format: cell-based
EXPERIMENTAL_CONTEXT: HEK293T and A549 cells, 5 μM, 24 h
REPORTED_ENDPOINT: labeling of PARK7 in cells

MOLECULE	REPORTED_ENDPOINT	VALUE_REPORTED
CC[N+]1=C(/C=C/C=C/C=C2/N(CCCCCC(=O)NCCCc3cn(CC(=O)N4CCN(S(=O)(=O)c5cccc(C(=O)N6CCc7nc(NC(=O)[C@@H]8CCN(C#N)C8)sc7C6)c5)CC4)nn3)c3ccc(S(=O)(=O)[O-])cc3C2(C)C)C(C)(C)c2cc(S(=O)(=O)O)ccc21 [JYQ-192]	labeling of PARK7 in cells	clear band around 25 kDa
CC1=CC(C)=[N+]2C1=C(CCCCc1cn(-c3ccc(F)c(C(=O)N4CCc5nc(NC(=O)[C@@H]6CCN(C#N)C6)sc5C4)c3)nn1)c1c(C)cc(C)n1[B-]2(F)F [JYQ-196]	labeling of PARK7 in cells	clear band around 25 kDa
CC[N+]1=C(/C=C/C=C/C=C2/N(CCCCCC(=O)NCCCc3cn(-c4ccc(F)c(C(=O)N5CCc6nc(NC(=O)[C@@H]7CCN(C#N)C7)sc6C5)c4)nn3)c3ccc(S(=O)(=O)O)cc3C2(C)C)C(C)(C)c2cc(S(=O)(=O)[O-])ccc21 [JYQ-197]	labeling of PARK7 in cells	clear band around 25 kDa

----------
STUDY_TARGET: PARK7 (Homo sapiens, UniProt Q99497)
Sequence (Q99497 1-189): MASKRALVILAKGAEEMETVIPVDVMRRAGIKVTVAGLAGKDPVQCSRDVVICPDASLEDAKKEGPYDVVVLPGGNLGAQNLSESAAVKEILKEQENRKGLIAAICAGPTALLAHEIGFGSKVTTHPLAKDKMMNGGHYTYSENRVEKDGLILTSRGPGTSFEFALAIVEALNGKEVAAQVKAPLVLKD
ASSAY_OVERVIEW: Hit validation and pure-compound testing in the PARK7 FP assay with JYQ-107
Assay type: biochemical
EXPERIMENTAL_CONTEXT: crude compounds, 0.5 µM; read-out: % Inhibition 0.5 µM
REPORTED_ENDPOINT: inhibition at 0.5 µM (%)

Recorded results for 5 molecules are shown here.
MOLECULE	inhibition at 0.5 µM / %
N#CN1CC[C@@H](C(=O)Nc2nc3c(s2)CN(C(=O)c2cn(C4CCC4)nn2)CC3)C1	75.7
N#CN1CC[C@@H](C(=O)Nc2nc3c(s2)CN(C(=O)c2cccnc2Oc2ccc(Cl)cc2Cl)CC3)C1	85
N#CN1CC[C@@H](C(=O)Nc2nc3c(s2)CN(C(=O)C2CC(=O)N(C4CCCCCC4)C2)CC3)C1 (stereo partly drawn)	70.9
N#CN1CC[C@@H](C(=O)Nc2nc3c(s2)CN(C(=O)Cc2cnn(-c4ccccc4)n2)CC3)C1	85.4
N#CN1CC[C@@H](C(=O)Nc2nc3c(s2)CN(C(=O)c2ccc(-c4ccccn4)nc2)CC3)C1	71.4

[P] CN(CC1CC1)c1ccc(C(F)(F)F)cc1C(=O)N1CCc2nc(NC(=O)[C@@H]3CCN(C#N)C3)sc2C1
[Q] N#CN1CC[C@@H](C(=O)Nc2nc3c(s2)CN(C(=O)c2coc(C#Cc4ccccc4)c2)CC3)C1
[ask] Field: lower recorded inhibition at 0.5 µM (choose P or Q ) Write down the label of the entry you select.
[reply] Q

----------
STUDY_TARGET: PARK7 (Homo sapiens, UniProt Q99497)
ASSAY_OVERVIEW: Hit validation and pure-compound testing in the PARK7 FP assay with JYQ-107
Type: biochemical
EXPERIMENTAL_CONTEXT: crude compounds, 0.5 µM; read-out: % Inhibition 0.5 µM
REPORTED_ENDPOINT: inhibition at 0.5 µM (%)

STRUCTURE_SMILES	inhibition at 0.5 µM / %
N#CN1CC[C@@H](C(=O)Nc2nc3c(s2)CN(C(=O)c2cccc(S(=O)(=O)NCc4cccs4)c2)CC3)C1	77.9
Cc1csc(-c2cccc(C(=O)N3CCc4nc(NC(=O)[C@@H]5CCN(C#N)C5)sc4C3)c2)n1	86.9
N#CN1CC[C@@H](C(=O)Nc2nc3c(s2)CN(C(=O)c2cccc(Cn4ccnc4)c2)CC3)C1	78.4
COc1ccc(C(=O)N2CCc3nc(NC(=O)[C@@H]4CCN(C#N)C4)sc3C2)cc1S(=O)(=O)NCCCN1CCOCC1	71.2
N#CN1CC[C@@H](C(=O)Nc2nc3c(s2)CN(C(=O)c2ccc(-c4ccccn4)s2)CC3)C1	72.9

----------
STUDY_TARGET: PARK7 (Homo sapiens)
ASSAY_OVERVIEW: High-throughput screen of the crude compound library, PARK7 fluorescence polarization (FP) assay with FP reagent JYQ-107
Type: biochemical
EXPERIMENTAL_CONTEXT: 1.25 µM, crude compound library, FP reagent JYQ-107; read-out: HTS FP assay %Inhibition (1.25 µM)
From the text: Therefore, taking JYQ-88 as a starting point, we conducted an optimization to further improve the molecule in terms of inhibitory potency, specificity, and cellular uptake. […] We next performed a high-throughput screen of this crude compound library using our in-house developed PARK7 fluorescence polarization (FP) assay.[15]
REPORTED_ENDPOINT: inhibition at 1.25 µM (%)

COMPOUND	STUDY_TARGET	inhibition at 1.25 µM (%)
CC(=O)CCCC(=O)N1CCc2nc(NC(=O)[C@@H]3CCN(C#N)C3)sc2C1 [compound 431]	PARK7 (Homo sapiens)	72.4
N#CN1CC[C@@H](C(=O)Nc2nc3c(s2)CN(C(=O)c2cccc4c2-c2ccccc2C4)CC3)C1 [compound 425]	PARK7 (Homo sapiens)	84
N#CN1CC[C@@H](C(=O)Nc2nc3c(s2)CN(C(=O)C(CCc2ccccc2)c2ccccc2)CC3)C1 (stereo partly shown) [compound 380]	PARK7 (Homo sapiens)	80.3
CC1CCCCN1S(=O)(=O)c1ccccc1C(=O)N1CCc2nc(NC(=O)[C@@H]3CCN(C#N)C3)sc2C1 (stereo partly shown) [Compound 386]	PARK7 (Homo sapiens)	94.5

----------
STUDY_TARGET: UniProt Q99497
Sequence (Q99497 1-189): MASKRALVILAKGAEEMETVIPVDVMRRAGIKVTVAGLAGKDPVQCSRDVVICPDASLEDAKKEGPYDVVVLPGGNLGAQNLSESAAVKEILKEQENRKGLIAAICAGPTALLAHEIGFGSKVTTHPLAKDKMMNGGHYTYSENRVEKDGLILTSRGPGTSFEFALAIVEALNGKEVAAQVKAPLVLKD
ASSAY_OVERVIEW: Hit validation and pure-compound testing in the PARK7 FP assay with JYQ-107
Format: biochemical
EXPERIMENTAL_CONTEXT: pure compounds, 0.25 and 1 μM

COMPOUND	potency in FP assay compared to JYQ-88
N#CN1CC[C@@H](C(=O)Nc2nc3c(s2)CN(C(=O)CN2CCOCC2)CC3)C1 [Compound 1]	did not improve
N#CN1CC[C@@H](C(=O)Nc2nc3c(s2)CN(C(=O)CN2CCNCC2)CC3)C1 [Compound 4]	lowered
CN1CCN(CC(=O)N2CCc3nc(NC(=O)[C@@H]4CCN(C#N)C4)sc3C2)CC1 [Compound 2]	did not improve
N#CN1CC[C@@H](C(=O)Nc2nc3c(s2)CN(C(=O)CC2CCNCC2)CC3)C1 [Compound 5]	lowered

----------
STUDY_TARGET: PARK7 (Homo sapiens, UniProt Q99497)
ASSAY_OVERVIEW: High-throughput screen of the crude compound library, PARK7 fluorescence polarization (FP) assay with FP reagent JYQ-107
Format: biochemical
EXPERIMENTAL_CONTEXT: 1.25 µM, crude compound library; read-out: HTS FP assay %Inhibition (1.25 µM)
From the text: Therefore, taking JYQ-88 as a starting point, we conducted an optimization to further improve the molecule in terms of inhibitory potency, specificity, and cellular uptake. […] We next performed a high-throughput screen of this crude compound library using our in-house developed PARK7 fluorescence polarization (FP) assay.[15]
REPORTED_ENDPOINT: inhibition at 1.25 µM (%)

MOLECULE	UNITS_TEXT	inhibition at 1.25 µM
N#CN1CC[C@@H](C(=O)Nc2nc3c(s2)CN(C(=O)c2cccc(Cn4cncn4)c2)CC3)C1 [compound 278]	%	80.6
N#CN1CC[C@@H](C(=O)Nc2nc3c(s2)CN(C(=O)C2CC(=O)N(CCN4CCOCC4)C2)CC3)C1 (stereo partly shown) [compound 117]	%	71.4
CCOc1oc(-c2ccco2)nc1C(=O)N1CCc2nc(NC(=O)[C@@H]3CCN(C#N)C3)sc2C1 [compound 246]	%	82.7
N#CN1CC[C@@H](C(=O)Nc2nc3c(s2)CN(C(=O)c2cc(Cl)nc(N4CCCC4)c2)CC3)C1 [compound 160]	%	74.9
Cc1cc(C)cc(N(CCC(=O)N2CCc3nc(NC(=O)[C@@H]4CCN(C#N)C4)sc3C2)S(=O)(=O)c2ccc(Cl)cc2)c1 [compound 299]	%	87.8
CN(Cc1ccccc1)C(=O)N1CCC(C(=O)N2CCc3nc(NC(=O)[C@@H]4CCN(C#N)C4)sc3C2)CC1 [compound 250]	%	67.7
N#CN1CC[C@@H](C(=O)Nc2nc3c(s2)CN(C(=O)C2(NS(=O)(=O)C=Cc4ccccc4)CCCC2)CC3)C1 [compound 251]	%	66.6
N#CN1CC[C@@H](C(=O)Nc2nc3c(s2)CN(C(=O)c2ccc(Cn4cccn4)s2)CC3)C1 [compound 272]	%	83.3
N#CN1CC[C@@H](C(=O)Nc2nc3c(s2)CN(C(=O)c2ccc(OCc4ccncc4)cc2)CC3)C1 [compound 21]	%	59.5
Cc1cc(COc2ccc(C(=O)N3CCc4nc(NC(=O)[C@@H]5CCN(C#N)C5)sc4C3)cc2Br)no1 [compound 173]	%	72.5
Cc1csc(-c2cccc(C(=O)N3CCc4nc(NC(=O)[C@@H]5CCN(C#N)C5)sc4C3)c2)n1 [Compound 334]	%	89.4
COc1ccc(S(=O)(=O)N(CCC(=O)N2CCc3nc(NC(=O)[C@@H]4CCN(C#N)C4)sc3C2)Cc2ccccc2)cc1 [compound 342]	%	85.1
N#CN1CC[C@@H](C(=O)Nc2nc3c(s2)CN(C(=O)C2(c4ccccc4Cl)CCOCC2)CC3)C1 [compound 94]	%	65.7
N#CN1CC[C@@H](C(=O)Nc2nc3c(s2)CN(C(=O)c2cnc(Cc4ccc(F)cc4)s2)CC3)C1 [compound 298]	%	79.5
N#CN1CC[C@@H](C(=O)Nc2nc3c(s2)CN(C(=O)c2cccc(Oc4ccc(Cl)cc4)n2)CC3)C1 [Compound 312]	%	92.1
CNS(=O)(=O)c1ccc(-c2ccc(Cl)c(Cl)c2)c(C(=O)N2CCc3nc(NC(=O)[C@@H]4CCN(C#N)C4)sc3C2)c1 [compound 305]	%	74.8
Cc1oc(-c2ccsc2)nc1CC(=O)N1CCc2nc(NC(=O)[C@@H]3CCN(C#N)C3)sc2C1 [compound 343]	%	74.3
N#CN1CC[C@@H](C(=O)Nc2nc3c(s2)CN(C(=O)c2cc(C4CC4)n[nH]2)CC3)C1 [compound 209]	%	86.7
COc1ccc(CN2CCC2C(=O)N2CCc3nc(NC(=O)[C@@H]4CCN(C#N)C4)sc3C2)cc1 (stereo partly shown) [compound 228]	%	62.2
CCn1cc(S(=O)(=O)N2CCC(C(=O)N3CCc4nc(NC(=O)[C@@H]5CCN(C#N)C5)sc4C3)CC2)cn1 [compound 38]	%	69
N#CN1CC[C@@H](C(=O)Nc2nc3c(s2)CN(C(=O)C2CCN2C2CCCC2)CC3)C1 (stereo partly shown) [compound 320]	%	64.2
Cn1cc(S(=O)(=O)NCc2ccco2)cc1C(=O)N1CCc2nc(NC(=O)[C@@H]3CCN(C#N)C3)sc2C1 [compound 73]	%	82.4
Cc1c(S(=O)(=O)N2CCC(C(=O)N3CCc4nc(NC(=O)[C@@H]5CCN(C#N)C5)sc4C3)CC2)cnn1C [compound 86]	%	70.5
Cn1cc(-c2cc[nH]n2)c(C(=O)N2CCc3nc(NC(=O)[C@@H]4CCN(C#N)C4)sc3C2)n1 [compound 187]	%	59.2
N#CN1CC[C@@H](C(=O)Nc2nc3c(s2)CN(C(=O)c2ccc(Cl)c(N4CCCS4(=O)=O)c2)CC3)C1 [Compound 197]	%	95.6
CC1CC1C(=O)N1CCCCC1C(=O)N1CCc2nc(NC(=O)[C@@H]3CCN(C#N)C3)sc2C1 (stereo partly shown) [compound 61]	%	70.5
N#CN1CC[C@@H](C(=O)Nc2nc3c(s2)CN(C(=O)c2ccc(-c4ccncc4)[nH]c2=O)CC3)C1 [compound 330]	%	64.2
N#CN1CC[C@@H](C(=O)Nc2nc3c(s2)CN(C(=O)C2(CC(=O)N4CCOCC4)CCCC2)CC3)C1 [compound 249]	%	73.8
